Test system: C. elegans
ASSAY_NOTES: microbe, parasite or virus in culture
CONDITION_DETAILS: Caenorhabditis elegans, 0 h, read-out: Percentage of motility inhibition 0 h, Table S2, C. elegans SS assay, 110 μM, 0 h, averages of 4 data points
MEASUREMENT_KIND: inhibition at 110 µM (%)

COMPOUND	NUMERIC_RESULT
O=c1ccn([C@@H]2O[C@H](CO)[C@@H](O)[C@H]2O)c(=O)[nH]1	0
COc1cc(C(=O)O[C@H]2[C@@H]3C=CO[C@@H](O[C@@H]4O[C@H](CO)[C@@H](O)[C@H](O)[C@H]4O)[C@@H]3[C@@]3(CO)O[C@@H]23)ccc1O [Picroside II]	0
CC(=O)OC(C)(C)C1CC=C(C)CC1 (stereo not drawn) [α-Terpinyl acetate]	18
CC1(C)C=Cc2c(ccc3c2OC[C@@H](c2ccc(O)cc2O)C3)O1	26
COc1cc2c(cc1OC)-c1c(C)c3ccc(OC)c(OC)c3c[n+]1CC2 [Dehydrocorydaline]	4
C=C[C@H]1CN2CC[C@]3(C(=O)Nc4ccccc43)[C@@H]2C[C@@H]1/C(=C\OC)C(=O)OC	0
COc1cc(/C=C/C(=O)O[C@H]2CC[C@]34C[C@]35CC[C@]3(C)[C@@H]([C@H](C)CCC=C(C)C)CC[C@@]3(C)[C@@H]5CC[C@H]4C2(C)C)ccc1O [Cycloartenyl ferulate]	35
